In this section, each of the compounds is paired with its reported inhibition at 0.1 µM.
target: UniProtKB P35368; test: β-Arrestin GPCR functional assay, adrenergic α1B (Protocol B); assay type: cell-based; details: 0.1 μM compound; nor-epinephrine at EC80 (50 nM); read-out: Percentage inhibition, Adrenergic α1B
Sequence (P35368 whole entry): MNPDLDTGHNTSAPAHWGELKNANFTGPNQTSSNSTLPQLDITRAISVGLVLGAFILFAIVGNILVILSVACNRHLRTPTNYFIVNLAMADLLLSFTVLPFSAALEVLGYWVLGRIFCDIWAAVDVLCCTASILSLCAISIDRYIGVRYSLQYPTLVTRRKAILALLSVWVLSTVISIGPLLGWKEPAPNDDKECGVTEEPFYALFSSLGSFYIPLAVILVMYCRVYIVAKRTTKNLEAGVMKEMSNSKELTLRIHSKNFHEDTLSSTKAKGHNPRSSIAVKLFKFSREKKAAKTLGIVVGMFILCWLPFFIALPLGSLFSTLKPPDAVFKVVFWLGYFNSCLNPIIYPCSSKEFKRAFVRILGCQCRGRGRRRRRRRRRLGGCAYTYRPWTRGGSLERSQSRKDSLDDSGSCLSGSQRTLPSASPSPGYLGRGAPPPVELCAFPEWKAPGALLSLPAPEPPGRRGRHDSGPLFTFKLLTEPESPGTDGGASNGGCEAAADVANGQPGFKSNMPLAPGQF
Answer format: number, then unit.

Compound	Reported
Cc1ccc2c(c1)c1c(n2CC(O)c2ccncc2)CC[N+]2([O-])CCCC12 (stereo not shown)	15%
Cc1cc(C)c2c(c1)c1c(n2CC(C)(O)c2ccncc2)CCN2CCCC12 (single isomer, unassigned) [19a]	45%
Cc1ccc2c(c1)c1c(n2CC(C)(O)c2ccncc2)CCN2CCCC12 (single isomer, unassigned) [13a]	49%

Turning now to a further compound:
Please report the recorded inhibition at 0.1 µM for OC(Cn1c2c(c3cc(F)ccc31)C1CCCN1CC2)c1ccncc1 (single isomer, unassigned) [18b] .
19%
